- experimentalDetails: qHTS assay to identify aromatase inhibitors - cell viability counter screen (AID 743084);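 further: cells stimulated with testosterone during compound exposure; nearly all actives have a fitted effect of over 55% in size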
- setupConditions: MCF-7 aro ERE viability, CellTiter-Fluor, 24 h; series mostly up to 70.3 µM
Results filed as inconclusive are left out. Activity calls are given as the source filed them. The call rests on the fitted dose curve; in most records, active means well fitted cell-killing curve with a large enough effect in the repeat runs; inconclusive means weak or mixed curves, or effect the other way; inactive means no such curve, though single readings can be large or run the other way.
Parameter call: string, one of Yes for active, No for inactive

// query Per the assay record, what outcome was assigned to Cc1onc(-c2ccccc2)c1C(=O)N[C@@H]1C(=O)N2[C@@H]1SC(C)(C)[C@@H]2C(=O)O ?
// result No

// query Hi, do you know how O=P(O)(O)C(O)(Cc1cnc2ccccn12)P(=O)(O)O came out in this test?
// result No

// query Outcome? c1ccc2cc(C3=NCCN3)ccc2c1
// result No

// query Each compound tested received a call. Report the one for Cn1c(=O)c2c(ncn2CCOC(=O)C(C)(C)Oc2ccc(Cl)cc2)n(C)c1=O .
// result No

// query Which outcome was entered for the compound CC(=O)O[C@H]1C(=O)[C@@]2(C)[C@H]([C@H](OC(=O)c3ccccc3)[C@]3(O)C[C@H](OC(=O)[C@H](O)[C@@H](NC(=O)c4ccccc4)c4ccccc4)C(C)=C1C3(C)C)[C@]1(OC(C)=O)CO[C@@H]1C[C@@H]2O in this test?
// result Yes

// query What classification did Cc1cccc(C)c1N(CCCc1cccnc1)C(=O)C(C)N (stereo unspecified) end up with in this test?
// result No

// query Kindly provide the recorded test outcome for the following compound: O=C(COc1ccc(Cl)cc1)OCCNC12CC3CC(CC(C3)C1)C2
// result No

// query Called result for COC(=O)[C@@H](N)CS
// result No

// query Which outcome was entered for the compound COc1cc(Br)c(C[N+]2(CCOCCC3CCC4CC3C4(C)C)CCOCC2)cc1OC (stereo unspecified) in this test?
// result No

// query What is the recorded call for this compound in the test? Cc1cc(-n2c(=O)[nH]c(=O)n(C)c2=O)ccc1Oc1ccc(S(=O)(=O)C(F)(F)F)cc1
// result No

// query Which outcome was assigned to CC(C)[C@@H](N)C(=O)O in this test?
// result No

// query Answer briefly: the call reported for Cc1nnc(C(C)C)n1C1C[C@H]2CC[C@@H](C1)N2CC[C@H](NC(=O)C1CCC(F)(F)CC1)c1ccccc1 (stereo partly specified) in this assay.
// result No

// query Answer briefly: the call reported for CCCCCCCN(CC)CCCC(O)c1ccc(NS(C)(=O)=O)cc1 (stereo unspecified) in this assay.
// result No

// query // param item: CCCN(CC)C(CC)C(=O)Nc1c(C)cccc1C (stereo unspecified) ; yields the recorded call
// result No

// query Recorded call for CCOC(=O)c1cc(-c2ccccc2)nc2ccc(C)cc12 ?
// result No

// query Could you please tell me the result logged for CC(C(=O)O)c1ccc(N2Cc3ccccc3C2=O)cc1 (stereo unspecified) in this assay?
// result No

// query Check the results log: what was the call for CCOC(=O)[C@H](CCc1ccccc1)N[C@@H](C)C(=O)N1CC2(C[C@H]1C(=O)O)SCCS2 ?
// result No

// query // return assay outcome for NC(=O)Oc1ccc(Cc2ccccc2)cc1
// result No

// query Dear colleague, could you share the recorded outcome for FC(F)(F)C(F)(F)C(F)(F)C(F)(F)C(F)(F)C(F)(F)F when you have a moment?
// result No

// query Called result for CN(C)C=Nc1c(I)cc(I)c(CCC(=O)O)c1I
// result No

// query What did this assay record as the result for O=C(O)C1=C(CSc2nnnn2CS(=O)(=O)O)CS[C@@H]2[C@H](NC(=O)[C@H](O)c3ccccc3)C(=O)N12 ?
// result No

====

- targetOfAssay: Androgen receptor (Homo sapiens) (UniProt P10275)
- Sequence (P10275 whole entry, looked up): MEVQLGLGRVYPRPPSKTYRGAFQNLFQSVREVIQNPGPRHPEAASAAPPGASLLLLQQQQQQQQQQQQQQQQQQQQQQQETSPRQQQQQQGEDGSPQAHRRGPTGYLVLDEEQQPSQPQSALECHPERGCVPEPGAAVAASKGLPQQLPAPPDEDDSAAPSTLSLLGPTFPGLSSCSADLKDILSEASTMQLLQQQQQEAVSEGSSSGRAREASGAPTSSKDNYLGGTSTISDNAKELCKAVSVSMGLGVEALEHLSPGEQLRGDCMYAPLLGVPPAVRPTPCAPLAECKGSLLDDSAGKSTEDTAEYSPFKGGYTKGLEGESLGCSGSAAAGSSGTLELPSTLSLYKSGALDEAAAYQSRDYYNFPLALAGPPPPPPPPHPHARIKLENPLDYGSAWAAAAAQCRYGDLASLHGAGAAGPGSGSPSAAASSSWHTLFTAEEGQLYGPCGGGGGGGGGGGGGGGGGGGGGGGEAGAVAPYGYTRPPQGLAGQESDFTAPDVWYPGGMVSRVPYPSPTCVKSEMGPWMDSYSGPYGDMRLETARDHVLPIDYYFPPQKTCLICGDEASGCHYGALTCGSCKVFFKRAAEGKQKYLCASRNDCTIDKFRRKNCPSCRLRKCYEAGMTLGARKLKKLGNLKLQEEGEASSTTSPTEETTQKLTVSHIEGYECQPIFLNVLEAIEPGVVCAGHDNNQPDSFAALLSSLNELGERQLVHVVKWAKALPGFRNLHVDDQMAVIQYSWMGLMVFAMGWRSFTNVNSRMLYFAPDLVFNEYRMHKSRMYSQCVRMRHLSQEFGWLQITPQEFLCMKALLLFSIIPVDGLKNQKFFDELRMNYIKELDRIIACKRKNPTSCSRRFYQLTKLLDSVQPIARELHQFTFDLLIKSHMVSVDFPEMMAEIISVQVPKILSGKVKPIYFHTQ
- experimentalDetails: qHTS assay to identify small molecule antagonists of the androgen receptor (AR) signaling pathway (AID 743035)
- setupConditions: HEK293 AR-UAS-bla, R1881-stimulated, beta-lactamase FRET, 16 h; series mostly up to 58.5 µM
Inconclusive results are not listed. Activity calls are given as the source filed them. The call rests on the fitted dose curve; in most records, active means well fitted inhibition curve with a large enough effect in the signal ratio in the repeat runs (not every such curve was filed as active); inconclusive means weak or mixed curves, or effect the other way; inactive means no such curve, though single readings can be large or run the other way; the % refers to the signal ratio.
Answer with one of the outcomes yes (1) (active), no (0) (inactive)

// query Assay result, entry CCOC(=O)COc1ccc2c(C)c(CCN(CC)CC)c(=O)oc2c1 — outcome?
// result no (0)

// query Hi team, can someone confirm the assay call for O=C(Cc1cccs1)N[C@@H]1C(=O)N2C(C(=O)[O-])=C(C[n+]3ccccc3)CS[C@H]12 ?
// result no (0)

// query Called result for OCC(O)COc1ccc(Cl)cc1 (stereo unspecified)
// result no (0)

// query Please state the recorded outcome for this compound: O=S(=O)(O)c1cc(O)c2c(N=Nc3ccc(Nc4ccccc4)c4c(S(=O)(=O)O)cccc34)cc(S(=O)(=O)O)cc2c1
// result no (0)

// query Kindly provide the recorded test outcome for the following compound: O=C1C(=O)c2ncccc2-c2cccnc21
// result yes (1)

// query Hi team, can someone confirm the assay call for C[N@+]12CCCC[C@@H]1CCC(=C(c1cccs1)c1cccs1)C2 ?
// result no (0)

====

- targetOfAssay: Estrogen receptor (Homo sapiens)
- experimentalDetails: qHTS assay to identify small molecule antagonists of the estrogen receptor alpha (ER-alpha) signaling pathway (AID 743069)
- setupConditions: HEK293 ER-alpha-UAS-bla, beta-lactamase ratio, antagonist mode; series mostly up to 69.4 µM
Calls of active or inactive are those of the source. The call rests on the fitted dose curve; in most records, active means well fitted curve in the direction sought with a large enough effect in the signal ratio in the repeat runs (not every such curve was filed as active); inconclusive means weak or mixed curves, or effect the other way; inactive means no such curve, though single readings can be large or run the other way; the % refers to the signal ratio.
Give one outcome, nothing more. List: True (active), False (inactive)

// query Given CC(C)Cc1ccc([C@@H](C)C(=O)NS(C)(=O)=O)cc1 , state the outcome it received in this test.
// result False

// query Hi team, can someone confirm the assay call for COCC1=C(C(=O)OC(C)OC(=O)OC(C)C)N2C(=O)[C@@H](NC(=O)/C(=N\OC)c3csc(N)n3)[C@H]2SC1 (stereo not given in full) ?
// result False

// query Please let me know the test result on file for O=C(O)CC/C=C\CC[C@@H]1[C@@H](N2CCCCC2)[C@@H](O)C[C@@H]1OCc1ccc(-c2ccccc2)cc1 .
// result False

// query Called result for C[Se]CCC(N)C(=O)O (stereo not given)
// result False

// query # lookup: test call for C=CCCCCCCCCC(=O)OC
// result False

// query # lookup: test call for O=C(O)COc1ccc(CCNS(=O)(=O)c2ccccc2)s1
// result False

// query Hello, I am checking results. What call was entered for O=S(=O)(O)c1cc(O)c2c(N=Nc3ccc(Nc4ccccc4)c4c(S(=O)(=O)O)cccc34)cc(S(=O)(=O)O)cc2c1 ?
// result False

// query Look up the recorded call for C[C@@H]1C/C=C/C=C/C=C/C=C/[C@H](O[C@@H]2O[C@H](C)[C@@H](O)[C@H](N)[C@@H]2O)C[C@@H]2O[C@](O)(C[C@@H](O)C[C@H]3O[C@@H]3/C=C/C(=O)O1)C[C@H](O)[C@H]2C(=O)O in this test.
// result False

// query Hello, I am checking results. What call was entered for CC1=C(/C=C/C(C)=C/C=C/C(C)=C/C(=O)Oc2c(C)c(C)c3c(c2C)CC[C@@](C)(CCC[C@H](C)CCC[C@H](C)CCCC(C)C)O3)C(C)(C)CCC1 ?
// result False

// query Dear colleague, could you share the recorded outcome for CCCCC/C=C\CCC(=O)N[C@H]1[C@H](Oc2c3cc4cc2Oc2ccc(cc2Cl)[C@@H](O[C@@H]2O[C@H](CO)[C@@H](O)[C@H](O)[C@H]2NC(C)=O)[C@@H]2NC(=O)[C@H](NC(=O)[C@@H]4NC(=O)[C@H]4NC(=O)[C@@H](Cc5ccc(c(Cl)c5)O3)NC(=O)[C@H](N)c3ccc(O)c(c3)Oc3cc(O)cc4c3)c3ccc(O)c(c3)-c3c(O[C@H]4O[C@H](CO)[C@@H](O)[C@H](O)[C@@H]4O)cc(O)cc3[C@@H](C(=O)O)NC2=O)O[C@H](CO)[C@@H](O)[C@@H]1O when you have a moment?
// result False

// query Hello, I am checking results. What call was entered for O=C(CO)[C@@H](O)[C@H](O)[C@@H](O)C(=O)O ?
// result False

// query Record request — test call for CC[C@H](C)[C@H]1O[C@]2(CC[C@@H]1C)C[C@@H]1C[C@@H](C/C=C(\C)[C@@H](O[C@H]3C[C@H](OC)[C@@H](O[C@H]4C[C@H](OC)[C@@H](O)[C@H](C)O4)[C@H](C)O3)[C@@H](C)/C=C/C=C3\CO[C@@H]4[C@H](O)C(C)=C[C@@H](C(=O)O1)[C@]34O)O2
// result True

// query Hello, I am checking results. What call was entered for CCOC(=O)COc1ccc2c(C)c(CCN(CC)CC)c(=O)oc2c1 ?
// result False

// query Given COc1ccc(CCNCC(O)COc2cccc(C)c2)cc1OC (stereo not given) , state the outcome it received in this test.
// result False

// query Would you mind telling me which call this test gave CC(C)CN(C[C@@H](OP(=O)(O)O)[C@H](Cc1ccccc1)NC(=O)O[C@H]1CCOC1)S(=O)(=O)c1ccc(N)cc1 ?
// result False

Reference for the values: PubChem BioAssay (Tox21)
